Origin of the recorded values: ChEMBL document CHEMBL5058577

What Population Healthy Nuclei (%) was measured for each of the following?
System: HEK-293T
Assay: Multiplex assay against HEK293T
Format: toxicity, cell-based
Conditions: human, 24 h, 10 µM, compound concentration 10 uM, replicate 1
Record the value in %, omitting the unit from your answer.

Exercise: Input Cl.Clc1ccc2nsnc2c1NC1=NCCN1 [TIZANIDINE HYDROCHLORIDE] , output reported Population Healthy Nuclei (%).
Key: 78

Exercise: Fill in Population Healthy Nuclei (%) for record `CC[C@H]1OC(=O)[C@H](C)[C@@H](O[C@H]2C[C@@](C)(OC)[C@@H](O)[C@H](C)O2)[C@H](C)[C@@H](O[C@@H]2O[C@H](C)C[C@H](N(C)C)[C@H]2O)[C@@]2(C)CC(C)=C(O2)[C@H](C)[C@@H](O)[C@]1(C)O`
Key: 75

Exercise: State, in one line, measured Population Healthy Nuclei (%) of `Oc1c(CN2CCN(c3ccccn3)CC2)cc(Cl)c2cccnc12`
Key: 65

Exercise: Identify measured Population Healthy Nuclei (%) corresponding to `CCCC(CCC)C(=O)O`
Key: 81

###

Give measured Population Mitochondria Different-Phenotype (%) for each item. Keep answers brief.
System: HEK-293T
Experiment: Multiplex assay against HEK293T
Format: toxicity, cell-based
Settings: human, 48 h, 10 µM, compound concentration 10 uM, replicate 1
Hi! Could you send only the number? It should be in %, unit omitted.

Exercise: Give Population Mitochondria Different-Phenotype (%) for `Cc1ccc(/C(=C\CN2CCCC2)c2ccccn2)cc1`
Key: 46

Exercise: Give recorded Population Mitochondria Different-Phenotype (%). `CCNC1(C(N)=O)CCN(c2ncnc3c2nc(-c2ccccc2Cl)n3-c2ccc(Cl)cc2)CC1`
Key: 78

Exercise: Report Population Mitochondria Different-Phenotype (%) for `Cc1ccc(-c2ccc(F)cc2COc2ccc(CCC(=O)O)cc2)cc1`
Key: 17

Exercise: In one line, give reported Population Mitochondria Different-Phenotype (%) of the entry `CC1(COc2ccc3c(c2)ncn3-c2ccc3cccc(N4CCC(N)CC4)c3n2)COC1` .
Key: 97

Exercise: // fetch Population Mitochondria Different-Phenotype (%) given entry Cl.Clc1ccc2nsnc2c1NC1=NCCN1 [TIZANIDINE HYDROCHLORIDE]
Key: 13

Exercise: // Input: `Oc1c(CN2CCN(c3ccccn3)CC2)cc(Cl)c2cccnc12` . Output its Population Mitochondria Different-Phenotype (%) only.
Key: 60

Exercise: Answer with the recorded Population Mitochondria Different-Phenotype (%) of COc1ccc2c(c1)C(C(=O)N(Cc1ccc(N(C)C)cc1)c1ccc(C(C)C)cc1)CCC2.Cl (configuration not stated) only.
Key: 25

###

Test system: Fibroblast
Test: Multiplex assay against human fibroblast
Format: toxicity, cell-based
Settings: 48 h, 10 µM, compound concentration 10 uM, replicate 2
Record form. Attribute: Population Pyknosed Nuclei (%). Fill in for each entry.
Report as a plain number; the unit % is understood.

Exercise: Let me know recorded Population Pyknosed Nuclei (%) for `c1cc(OCCCN2CCCCC2)ccc1CN1CCCCC1` , thanks.
Key: 10

Exercise: Annotate the compound `Cc1ccc(/C(=C\CN2CCCC2)c2ccccn2)cc1` with its measured Population Pyknosed Nuclei (%).
Key: 10

Exercise: Look up Population Pyknosed Nuclei (%) of `CCNC1(C(N)=O)CCN(c2ncnc3c2nc(-c2ccccc2Cl)n3-c2ccc(Cl)cc2)CC1` and report it.
Key: 6

Exercise: Look up and report measured Population Pyknosed Nuclei (%) for this entry: `COc1cc(NC(=O)CCN2CCC(OC(=O)Nc3ccccc3-c3ccccc3)CC2)c(Cl)cc1CNC[C@H](O)c1ccc(O)c2[nH]c(=O)ccc12`
Key: 6
